Test system: Myo5 SH3 domain
Test: SPOT analysis of cellulose-bound peptides (WISE), Myo5 SH3 domain (Dataset S4)
Assay type: binding, Saccharomyces cerevisiae
Conditions: SPOT analysis of membrane-bound peptides, Myo5 SH3 domain; normalized value (see methods)
measuredMetric: The normalized value in BLU units (BLU)

[
  {
    "residueString": "IPAPKLVPPPPRTR",
    "assayedTarget": "Myo5 SH3 domain",
    "measuredMetric": "The normalized value in BLU units",
    "reportedResult": 82308.4
  },
  {
    "residueString": "DETRKLTPCSPGDD",
    "assayedTarget": "Myo5 SH3 domain",
    "measuredMetric": "The normalized value in BLU units",
    "reportedResult": 230.8
  },
  {
    "residueString": "KRNSKHAPFIPVKP",
    "assayedTarget": "Myo5 SH3 domain",
    "measuredMetric": "The normalized value in BLU units",
    "reportedResult": 381.6
  },
  {
    "residueString": "VCHSKYIPLKPIQD",
    "assayedTarget": "Myo5 SH3 domain",
    "measuredMetric": "The normalized value in BLU units",
    "reportedResult": 298.3
  },
  {
    "residueString": "GQQKRFSPSLPSAV",
    "assayedTarget": "Myo5 SH3 domain",
    "measuredMetric": "The normalized value in BLU units",
    "reportedResult": 728.5
  },
  {
    "residueString": "TMKNKPKPTPPSPP",
    "assayedTarget": "Myo5 SH3 domain",
    "measuredMetric": "The normalized value in BLU units",
    "reportedResult": 909.8
  },
  {
    "residueString": "KLHEKYFPDLPKEV",
    "assayedTarget": "Myo5 SH3 domain",
    "measuredMetric": "The normalized value in BLU units",
    "reportedResult": 110.4
  },
  {
    "residueString": "NTVEKLQPGLPVII",
    "assayedTarget": "Myo5 SH3 domain",
    "measuredMetric": "The normalized value in BLU units",
    "reportedResult": 279.7
  },
  {
    "residueString": "VSQRKKRPISPHLT",
    "assayedTarget": "Myo5 SH3 domain",
    "measuredMetric": "The normalized value in BLU units",
    "reportedResult": 814.5
  },
  {
    "residueString": "EKNARGIPQAPFIE",
    "assayedTarget": "Myo5 SH3 domain",
    "measuredMetric": "The normalized value in BLU units",
    "reportedResult": 135.6
  },
  {
    "residueString": "SETARKVPPIPTQI",
    "assayedTarget": "Myo5 SH3 domain",
    "measuredMetric": "The normalized value in BLU units",
    "reportedResult": 420.1
  },
  {
    "residueString": "SMAMRPIPPLPTES",
    "assayedTarget": "Myo5 SH3 domain",
    "measuredMetric": "The normalized value in BLU units",
    "reportedResult": 1326.7
  },
  {
    "residueString": "KLVLRNVPILPILN",
    "assayedTarget": "Myo5 SH3 domain",
    "measuredMetric": "The normalized value in BLU units",
    "reportedResult": 303.3
  },
  {
    "residueString": "DSVLRQKPDKPRPI",
    "assayedTarget": "Myo5 SH3 domain",
    "measuredMetric": "The normalized value in BLU units",
    "reportedResult": 134.9
  },
  {
    "residueString": "VWGPKPVPFQPMDV",
    "assayedTarget": "Myo5 SH3 domain",
    "measuredMetric": "The normalized value in BLU units",
    "reportedResult": 96.9
  },
  {
    "residueString": "PPRFKNFPTLPSKI",
    "assayedTarget": "Myo5 SH3 domain",
    "measuredMetric": "The normalized value in BLU units",
    "reportedResult": 634.0
  },
  {
    "residueString": "RRHNRQHPPYPHSG",
    "assayedTarget": "Myo5 SH3 domain",
    "measuredMetric": "The normalized value in BLU units",
    "reportedResult": 1287.6
  },
  {
    "residueString": "KRRSKSLPITPKSI",
    "assayedTarget": "Myo5 SH3 domain",
    "measuredMetric": "The normalized value in BLU units",
    "reportedResult": 920.9
  },
  {
    "residueString": "LDTHKESPLRPKVR",
    "assayedTarget": "Myo5 SH3 domain",
    "measuredMetric": "The normalized value in BLU units",
    "reportedResult": 199.3
  },
  {
    "residueString": "LPEPRFYPLSPKNN",
    "assayedTarget": "Myo5 SH3 domain",
    "measuredMetric": "The normalized value in BLU units",
    "reportedResult": 289.3
  },
  {
    "residueString": "TYIWRYLPAPPVCI",
    "assayedTarget": "Myo5 SH3 domain",
    "measuredMetric": "The normalized value in BLU units",
    "reportedResult": 444.5
  }
]
